test system: HepG2; assay: GSK_TCMDC: Percent inhibition of human HepG2 cell line. Test compounds present at 10uM.; format: functional
endpoint: Inhibition (%)

INSERT INTO measurements (compound, endpoint, result_unit, val) VALUES
  ('CS(=O)(=O)c1ccc(CCNCc2ccc(-c3ccc(CNC4Cc5ccccc5C4)cc3)nc2)cc1.O=C(O)C(F)(F)F', 'Inhibition', '%', 18),
  ('COc1ccc2nccc([C@@H](O)CN3CCC(NC(=O)Cc4cc5ccccc5s4)CC3)c2c1', 'Inhibition', '%', 16),
  ('Cc1cc(C(=O)Nc2ccc(-c3nc4ccccc4[nH]3)cc2)ccc1[N+](=O)[O-]', 'Inhibition', '%', 55),
  ('O=C(CSc1nc2ccccc2c(=O)n1CC1CCCO1)Nc1cc(C(F)(F)F)ccc1Cl (stereo not given)', 'Inhibition', '%', 12),
  ('c1ccc(-c2nc(NC3CCCCC3)cc(C3CC3)n2)nc1', 'Inhibition', '%', 35),
  ('c1ccc(CNc2cc(-c3ccccn3)nc(-c3ccccn3)n2)cc1', 'Inhibition', '%', 88),
  ('CC(Sc1nc2sccc2c(=O)n1C)C(=O)Nc1ccc2c(c1)OCO2 (stereo not given)', 'Inhibition', '%', 5),
  ('Cc1cc(-c2cc(-c3ccc(OCCN(C)C)cc3)[nH]c2-c2ccc3c(c2)CCC3=NO)ccn1', 'Inhibition', '%', 0),
  ('Cn1cc(-c2ccccc2C(=O)O)c(=O)c2cc(Cl)ccc21', 'Inhibition', '%', 16),
  ('CC(C)CCOc1ccc(NC(=O)c2cccs2)cc1', 'Inhibition', '%', 11);

----------
system: HepG2; assay: GSK_TCMDC: Percent inhibition of human HepG2 cell line. Test compounds present at 10uM.; type: functional
endpoint: Inhibition (%)

INSERT INTO assay_data (compound, val) VALUES
  ('Cc1nc(NC2=NCN(CCCN3CCOCC3)CN2)nc2c(C)cccc12', 17),
  ('COc1ccc(CNC(=O)c2cnc3c(O)cccc3c2Nc2cccc(NC(=O)c3ccc(F)cc3)c2)cc1.O=C(O)C(F)(F)F', 50),
  ('O=C(Nc1cccc(CN2CCCN(CC3CC3)CC2)c1)c1ccc(Cl)c(Cl)c1.O=C(O)C(F)(F)F', 13),
  ('Cc1[nH]c(C)c(-c2ccc(OCc3ccccc3)cc2)c(=O)c1Br', 19),
  ('COc1ccc2nccc([C@@H](O)CN3CCC(NCCOc4ccncc4)CC3)c2c1.O=C(O)C(=O)O', 11),
  ('Cc1ccccc1C1CCN(c2ncc(C(=O)NC3CC3)cc2Cl)CC1.O=C(O)C(F)(F)F', 22),
  ('COc1cccc2cc(C(=O)N[C@@H](CC(C)C)C(=O)N[C@H](C=NN3CCCC3=O)Cc3ccccc3)oc12', 5),
  ('N#CC(c1cccc(Cl)c1)c1ccc2c(C(F)(F)F)cc(C(F)(F)F)nc2n1 (configuration not stated)', 52),
  ('Cc1cc(N)c2cc(NC(=O)/C=C/c3ccccc3)ccc2n1', 20),
  ('Cc1cc(CNCC(CCNc2cc(=O)c3ccccc3[nH]2)NCc2cc(Br)cc(Br)c2)oc1C (configuration not stated)', 4),
  ('c1ccc(Oc2ccc(Nc3ccnc4ccc(-c5ccccn5)cc34)cc2)cc1', 4),
  ('Cl.Clc1ccc(OCCC2CCN(CCCCCCN3CCCCC3)CC2)cc1Cl', 86),
  ('COc1ccc2nccc(N3CCC(CCNCc4ccc5c(n4)NC(=O)CS5)CC3)c2n1.Cl', 32),
  ('CN1CCC(c2csc3ccc(NC(=O)Nc4ccc(-c5ccncc5)c5ccccc45)cc23)CC1', 8),
  ('COc1ccc2nccc(N3CCC(NCCNS(=O)(=O)c4ccc5c(c4)NC(=O)CS5)C3)c2n1.Cl (configuration not stated)', 12),
  ('CS(=O)(=O)CCNCc1cccc(-c2cc3c(Nc4ccc(OCc5ccccc5)cc4)ncnc3cn2)c1.Cl', 3),
  ('COc1ccc2ncc(F)c(CCN3C[C@H](CNCc4cc(C#N)c5c(c4)OCCO5)[C@H](O)C3)c2n1.Cl', 7),
  ('CC(C)NCc1ccc(-c2cccc(NC(=O)c3ccc(Cl)cc3)c2)cc1.O=C(O)C(F)(F)F', 20),
  ('Cc1cc(N[C@@H](Cc2ccccc2)C(=O)Nc2ccccc2)nc(NCCN2CCCC2)n1.O=C(O)C(F)(F)F', 8),
  ('CCc1ccc(NC(=O)c2ccc(CN3CCCN(Cc4ccc(C)s4)CC3)cc2)cc1.O=C(O)C(F)(F)F', 48),
  ('Cc1cc(OCCCN2CCC(NS(=O)(=O)c3cc(Br)c(Cl)s3)CC2)c2ccccc2n1', 5),
  ('O=c1cc(NCCCNC2CCOc3c(Cl)cccc32)[nH]c2ccccc12 (configuration not stated)', 0),
  ('Cn1nc(-c2ccccc2F)c2cc(C(=O)NC3CCN(Cc4ccccc4)CC3)sc21', 5),
  ('COc1ccc2nccc([C@@H](O)CN3CCC(NCc4cc5cc([N+](=O)[O-])ccc5[nH]4)CC3)c2c1.O=C(O)C(=O)O', 29),
  ('Clc1ccc2c(NCCc3ccccn3)ccnc2c1', 13),
  ('COc1ccc(NC(=O)[C@H](CC(C)C)Nc2cc(C)nc(NCCc3ccccc3OC)n2)cc1.O=C(O)C(F)(F)F', 9),
  ('COc1ccc2ccccc2c1C=NNc1ccnc2cc(Cl)ccc12', 20),
  ('C=C[C@H]1CN(CCCCCCC)CC[C@H]1CC(=O)Nc1cnnc2ccc(OC)cc12.O=C(O)C(=O)O', 12),
  ('CC[C@H](C)CNC(=O)c1cncc(-c2cccc(CNCCCc3ccccc3)c2)c1.O=C(O)C(F)(F)F', 9),
  ('Oc1cc(Nc2ccnc3cc(I)ccc23)c(F)cc1Cl', 0),
  ('CCNc1cc(C(=O)N[C@@H](Cc2ccccc2)[C@H](O)CNCc2cccc(OC)c2)c(OC)c(N2CCCCS2(=O)=O)c1', 11),
  ('Cc1nc2cc(/C=C/C(=O)NC3CCC(CCN4CCc5ccc(C#N)cc5CC4)CC3)ccc2[nH]1.Cl (configuration not stated)', 7),
  ('Cc1cccc2nc(-c3ccc(-c4ccc(CN5CCN(CCO)CC5)cc4)cc3)[nH]c12.O=C(O)C(F)(F)F', 20),
  ('COc1cc2nc(NCCc3ccccc3)nc(NCc3ccc(C#N)cc3)c2cc1OC', 52),
  ('COc1ccccc1-c1csc(C(=O)NCC2CCN(Cc3ccc(C(C)(C)C)cc3)C2)c1.O=C(O)C(F)(F)F (configuration not stated)', 29),
  ('CC(Nc1nc(Nc2ccc(F)cc2)nc(SCC(N)=O)n1)c1ccccc1 (configuration not stated)', 14),
  ('CC(C)(C)c1ccc(NC(=O)c2ccc(CN3CCCN(Cc4cccc(Cl)c4)CC3)cc2)cc1.O=C(O)C(F)(F)F', 43);

Origin of measurements: ChEMBL document CHEMBL1157539
